# System: HuVec Cells
# measurement.notes: GFP plasmid transfection with DOTMA/DOPE plus surface ligand peptide, fluorescent plate reader (Example 1)
# Type: cell-based
# setup.conditions: DOTMA/DOPE + peptide linked to R12 or K16; EF1Alpha eGFP plasmid; 42 hours
Hi, to clarify the labels: met covers Relative Fluorescence of Transfection of HuVec Cells (RF) from 9000 upward, not met covers anything below 9000.

Evaluate 205 (AASIKVAVSADR) [compound 205] : Relative Fluorescence of Transfection of HuVec Cells (RF) at minimum 9000?
not met

Evaluate 344 (KGHRGF) [compound 344] : Relative Fluorescence of Transfection of HuVec Cells (RF) at minimum 9000?
met

Evaluate 454 (TGLSCLQRFTTM) [compound 454] : Relative Fluorescence of Transfection of HuVec Cells (RF) at minimum 9000?
met

Evaluate 219 (RKRLQVQLSIRT) [compound 219] : Relative Fluorescence of Transfection of HuVec Cells (RF) at minimum 9000?
not met

Evaluate 343 (LFSHAVSSNG) [compound 343] : Relative Fluorescence of Transfection of HuVec Cells (RF) at minimum 9000?
met

Evaluate 357 (SETTVKYIFRLHE) [compound 357] : Relative Fluorescence of Transfection of HuVec Cells (RF) at minimum 9000?
not met

Evaluate 369 (TAIPSCPEGTVPLYS) [compound 369] : Relative Fluorescence of Transfection of HuVec Cells (RF) at minimum 9000?
not met

Evaluate 375 (LAGSCLPVFSTL) [compound 375] : Relative Fluorescence of Transfection of HuVec Cells (RF) at minimum 9000?
not met

Evaluate 379 (TAGSCLRKF) [compound 379] : Relative Fluorescence of Transfection of HuVec Cells (RF) at minimum 9000?
met

Evaluate 367 (TDIPPCPHGWISLWK) [compound 367] : Relative Fluorescence of Transfection of HuVec Cells (RF) at minimum 9000?
met

Evaluate 226 (ANGQTPIQRYIK) [compound 226] : Relative Fluorescence of Transfection of HuVec Cells (RF) at minimum 9000?
met

Evaluate 229 (PPFLMLLKGSTR) [compound 229] : Relative Fluorescence of Transfection of HuVec Cells (RF) at minimum 9000?
not met

Evaluate 224 (KPDVRSYTITG) [compound 224] : Relative Fluorescence of Transfection of HuVec Cells (RF) at minimum 9000?
met

Evaluate 450 (TAGSCLRKFSCL) [compound 450] : Relative Fluorescence of Transfection of HuVec Cells (RF) at minimum 9000?
met

Evaluate 345 (TAGSCLRKFSTMFLF) [compound 345] : Relative Fluorescence of Transfection of HuVec Cells (RF) at minimum 9000?
not met
